Values compiled from PubChem BioAssay.

# assay notes: HUVEC growth inhibition – cell-based, human, primary screen (AID 575);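 further: 100% = median of untreated cell wells with 0.1% DMSO on each plate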
# run parameters: HUVEC proliferation, CellTiter-Glo luminescence, 72 h; at 10 µM; hits give low values
measured parameter: viability (%)

1. C=CCSc1nnc(Cc2c(C)[nH]c3ccccc23)o1 ... 84.7
2. Cc1noc(/C=C/N(C)C)c1S(=O)(=O)N1CCCC(C(=O)NC2CCCCC2)C1 (stereo unspecified) ... 75.7
3. c1ccc(N2CCN(Cc3cn4cccnc4n3)CC2)cc1 ... 97.2
4. Cc1cc(=O)oc2cc(OCC#N)ccc12 ... 92.1
5. CC1CCCN(S(=O)(=O)c2coc(C(N)=O)c2)C1 (stereo unspecified) ... 82.6
6. N#CC1=C(N)Oc2cc(O)ccc2C1C1CCCCC1 (stereo unspecified) ... 47.4
7. CN(C)CCN1C(=O)C(O)=C(C(=O)c2cc3ccccc3o2)C1c1ccc(N(C)C)cc1 (stereo unspecified) ... 94.1
8. O=C(Nc1ncc(Cc2ccccc2)s1)C1CCCO1 (stereo unspecified) ... 84.3
9. COC(=O)c1cc(OC)c(OC)cc1NC(=O)c1ccc(Br)o1 ... 101
10. COc1ccc(NC(=O)CSc2nnc(Cc3cccn3C)n2-c2ccc(F)cc2)cc1 ... 94.4
11. CCOCCn1c(CN2CCN(CC)CC2)nc2c1c(=O)n(C)c(=O)n2C ... 94.2

###

# assay notes: viability of PTEN-null HCT116 cells – cell-based, HCT116 clonal line, CellTiter-Glo, pilot screen (AID 824);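 further: 0% = 20 µM Hyamine control and 100% = vehicle cell control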
# run parameters: HCT116 PTEN-deleted viability, 60 h, at 10 µM, hits give low values
Records with an inconclusive call do not appear. Active and inactive are the calls of the source.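 Rule for the calls: active = viability at or below 27.92% in each of two runs, the all-compound median minus 4 SD; inconclusive = no clear call, values can overlap the other calls; inactive = the rest.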
Entries and their viability
measured parameter: viability

1) S=c1[nH]nc(-c2ccccc2)n1C1C=CCCC1 (stereo unspecified) ... 101% (inactive)
2) CC(=O)Nc1ccc(NC(=O)CSc2nccn2Cc2ccccc2)cc1 ... 88.8% (inactive)
3) Cc1n[nH]c(C)c1N1C(=O)c2cccc3cc(Br)cc(c23)C1=O ... 101% (inactive)
4) Cc1cc(C(=O)NCc2cccs2)n(-c2ccccc2)n1 ... 90.6% (inactive)
5) COc1ccc(-c2nc(CCNC(=O)c3ccco3)cs2)cc1OC ... 87.7% (inactive)
6) CC(C)(C)SCCNC(=O)CN1C(=O)c2ccccc2S1(=O)=O ... 99.8% (inactive)

###

# assay notes: reduced viability of SK-BR-3 breast cancer cells – cell-based, 24 h, human, pilot screen (AID 572);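 further: compound exposure lasted between 18 and 24 h rather than exactly 24 h; 100% = carrier-treated control wells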
# run parameters: SK-BR-3 viability, CellTiter-Glo luminescence, at 10 µM, hits give low values
measured parameter: viability (%)

1. Cc1ccc2cccc(SCC(=O)N3CCOCC3)c2n1 ... 103
2. O=C1c2ccccc2C(Nc2ccc(F)c(Cl)c2)N1Cc1ccco1 (stereo unspecified) ... 92
3. COc1ccc(OCCCC(=O)Nc2nncs2)cc1 ... 97
4. Cc1cc(NC(=O)CS(=O)(=O)c2cn(Cc3ccccc3Cl)c3ccccc23)no1 ... 92
5. CCN(CC)CCCN1C(=O)C(O)=C(C(=O)c2ccco2)C1c1ccc(C)o1 (stereo unspecified) ... 102
6. COc1ccc(C(=O)c2coc3ccc(O)c(CN4CCCCC4)c23)cc1 ... 79.5
7. COc1ccc(C2CC(c3ccc(C)cc3)Nc3ncnn32)cc1 (stereo unspecified) ... 106
8. COc1ccc(OCCSc2nc3ccccc3n2CC(=O)O)cc1 ... 92.5
9. Cn1c(Cc2ccccc2)nnc1SCC(=O)NC1CCCCC1 ... 107
10. COc1cccc(CNC(=O)CCS(=O)(=O)c2cccc3nsnc23)c1 ... 106
11. COCCNC(=O)CN(C)S(=O)(=O)c1ccc(Br)cc1 ... 113
